Please go through the items and note down their IC50 fold difference compared to WT.
- TARGET OR SYSTEM: T1, human IL-17F (human, UniProt Q96PD4 31-163)
- T1 construct: made in Hek293 cells (GenBank AF384857); also called hIL-17F; hIL17F
- T1 sequence: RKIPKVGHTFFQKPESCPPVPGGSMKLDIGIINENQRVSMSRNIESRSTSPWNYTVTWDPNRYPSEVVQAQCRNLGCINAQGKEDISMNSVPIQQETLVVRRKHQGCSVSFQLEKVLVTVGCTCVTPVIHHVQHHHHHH
- ASSAY METHOD TEXT: AlphaScreen hIL-17F-IL-17RC; vs IL17MS13B03
One number for each entry, in fold.

Check out these entries, answers already filled in.
| BINDER | IC50 fold difference compared to WT / fold |
| --- | --- |
| IL17MS3051 (VHH, variant of IL17MS13B03; Kabat numbering) VHH: EVQLVESGGGSVQAGDSLRLSCAASGRAFSINWFGWFRQTPGKEREFVAGIRWSDAYTEYANSVKGRFTISRDNAKNTVDLQMDSLKPEDTAVYYCVLDLSTVRYWGQGTQVTVSS | 0.4 |
| IL17MS3053 (VHH, variant of IL17MS13B03; Kabat numbering) VHH: EVQLVESGGGSVQAGDSLRLSCAASGRANTINWFGWFRQTPGKEREFVAGIRWSDAYTEYANSVKGRFTISRDNAKNTVDLQMDSLKPEDTAVYYCVLDLSTVRYWGQGTQVTVSS | 1.2 |
| IL17MS3052 (VHH, variant of IL17MS13B03; Kabat numbering) VHH: EVQLVESGGGSVQAGDSLRLSCAASGRASSINWFGWFRQTPGKEREFVAGIRWSDAYTEYANSVKGRFTISRDNAKNTVDLQMDSLKPEDTAVYYCVLDLSTVRYWGQGTQVTVSS | 0.5 |

Shifting focus to the binder that follows.
Q: // IC50 fold difference compared to WT lookup, key: IL17MS3047 (VHH, variant of IL17MS13B03; Kabat numbering) VHH: EVQLVESGGGLVQPGGSLRLSCAASGRANSINWFGWFRQAPGKEREFVAGIRWSDAYTEYAASVKGRFTISRDNSKNTVYLQMNSLRPEDTAVYYCVLDLSTVRYWGQGTLVTVSS
Ans: 0.7
